These data points were gathered from the supplement of paper PMC3334620.

Documented PBM E-score across a set of sequences
# TESTED TARGET: Pdr3 (UniProt P33200)
# Sequence: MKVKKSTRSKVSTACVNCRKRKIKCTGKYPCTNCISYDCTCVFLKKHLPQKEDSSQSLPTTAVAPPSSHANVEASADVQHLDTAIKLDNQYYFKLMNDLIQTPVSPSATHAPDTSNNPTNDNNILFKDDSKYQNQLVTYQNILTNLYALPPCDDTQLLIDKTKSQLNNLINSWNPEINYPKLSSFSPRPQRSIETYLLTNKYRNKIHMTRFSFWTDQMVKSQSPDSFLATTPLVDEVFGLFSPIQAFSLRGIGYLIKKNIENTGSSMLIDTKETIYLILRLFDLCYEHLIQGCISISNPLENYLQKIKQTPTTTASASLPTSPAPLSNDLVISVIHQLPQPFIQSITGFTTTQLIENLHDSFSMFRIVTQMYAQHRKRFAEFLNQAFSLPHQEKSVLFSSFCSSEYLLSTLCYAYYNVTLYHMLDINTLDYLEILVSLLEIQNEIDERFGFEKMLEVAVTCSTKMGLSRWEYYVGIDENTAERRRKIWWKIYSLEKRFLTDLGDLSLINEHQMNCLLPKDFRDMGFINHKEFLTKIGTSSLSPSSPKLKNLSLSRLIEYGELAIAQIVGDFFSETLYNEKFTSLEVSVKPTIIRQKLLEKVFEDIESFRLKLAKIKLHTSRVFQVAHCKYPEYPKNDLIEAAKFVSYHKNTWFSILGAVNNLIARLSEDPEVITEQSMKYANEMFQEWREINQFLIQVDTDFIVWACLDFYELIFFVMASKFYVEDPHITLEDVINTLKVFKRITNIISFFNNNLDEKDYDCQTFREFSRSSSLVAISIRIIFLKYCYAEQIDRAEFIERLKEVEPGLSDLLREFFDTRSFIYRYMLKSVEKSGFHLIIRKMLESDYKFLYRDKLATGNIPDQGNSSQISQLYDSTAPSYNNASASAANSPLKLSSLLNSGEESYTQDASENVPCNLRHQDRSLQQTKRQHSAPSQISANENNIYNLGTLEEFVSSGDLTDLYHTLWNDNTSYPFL
# TEST DESCRIPTION: PBM E-score (8-mer binding enrichment) (E-score (-0.5 to 0.5)); higher = stronger / more preferred TF binding
# TEST PARAMETERS: protein concentration: 200 nM; construct: GST-full length
In all, about 33,000 sequences were measured (“E-score (-0.5 to 0.5)”: median about -0.035, highest 2% from about 0.35 on). This is one part of a sample in which the highest values are shown more often than they occur.
METRIC: PBM E-score

- ENTRY SEQUENCE: "GACGGACC"
  RESULT: 0.33
- ENTRY SEQUENCE: "AACCTCCG"
  RESULT: 0.219
- ENTRY SEQUENCE: "TAGCGGAA"
  RESULT: 0.357
- ENTRY SEQUENCE: "CCACCGGA"
  RESULT: 0.428
- ENTRY SEQUENCE: "CGTGGAAG"
  RESULT: 0.208
- ENTRY SEQUENCE: "GGGAAACC"
  RESULT: 0.149
- ENTRY SEQUENCE: "AACGGTCA"
  RESULT: 0.146
- ENTRY SEQUENCE: "GAGCGGAC"
  RESULT: 0.0792
- ENTRY SEQUENCE: "CCACCGGC"
  RESULT: 0.204
- ENTRY SEQUENCE: "TAGCGGGA"
  RESULT: 0.14
- ENTRY SEQUENCE: "GCGGATGA"
  RESULT: 0.303
- ENTRY SEQUENCE: "AGGGGAAA"
  RESULT: -0.0896
- ENTRY SEQUENCE: "AAGCGGAT"
  RESULT: 0.309
- ENTRY SEQUENCE: "ACCTTAGT"
  RESULT: -0.174
- ENTRY SEQUENCE: "CGGAAACC"
  RESULT: 0.425
- ENTRY SEQUENCE: "CGTGGAAA"
  RESULT: 0.243
- ENTRY SEQUENCE: "CCACCGGG"
  RESULT: 0.257
- ENTRY SEQUENCE: "AATTCGCA"
  RESULT: 0.255
- ENTRY SEQUENCE: "GGCGGAAC"
  RESULT: 0.467
- ENTRY SEQUENCE: "CACGGACG"
  RESULT: 0.324
- ENTRY SEQUENCE: "AAGCGGAA"
  RESULT: 0.387
- ENTRY SEQUENCE: "TCACCGGA"
  RESULT: 0.329
- ENTRY SEQUENCE: "CAGCGGAG"
  RESULT: 0.274
- ENTRY SEQUENCE: "ACTTAACC"
  RESULT: -0.166
- ENTRY SEQUENCE: "AAGAGTTC"
  RESULT: -0.178
- ENTRY SEQUENCE: "AATTCGAT"
  RESULT: 0.0319
- ENTRY SEQUENCE: "GGGAAACA"
  RESULT: 0.161
- ENTRY SEQUENCE: "CAATCCCG"
  RESULT: 0.392
- ENTRY SEQUENCE: "AACGGACG"
  RESULT: 0.241
- ENTRY SEQUENCE: "CACTTTAG"
  RESULT: -0.149
- ENTRY SEQUENCE: "AATACCCC"
  RESULT: 0.188
- ENTRY SEQUENCE: "GAGCGGAA"
  RESULT: 0.415
- ENTRY SEQUENCE: "TAGCGGCA"
  RESULT: 0.107
- ENTRY SEQUENCE: "AACGGACA"
  RESULT: 0.363
- ENTRY SEQUENCE: "GGCAGAAC"
  RESULT: 0.123
- ENTRY SEQUENCE: "AGAGGAAA"
  RESULT: 0.0754
- ENTRY SEQUENCE: "AACGGACC"
  RESULT: 0.303
- ENTRY SEQUENCE: "CACGGACA"
  RESULT: 0.355
- ENTRY SEQUENCE: "GGGGGAAC"
  RESULT: -0.165
- ENTRY SEQUENCE: "CACGGACC"
  RESULT: 0.378
